# Tested on: Wild type
# PROTOCOL_DETAILS: S. aureus survival, RN4220 and DeltatarO strains – OD600, teichoic acid synthesis inhibitors, primary screen (AID 463173)
# CONDITION_PARAMETERS: S. aureus RN4220 wild type/DeltatarO growth, OD600, 18 h, hits give low values, screened at 18.75 µg/mL (by protocol)
Among all 52,000 compounds or so, about 1,700 (3.3%) were called active. For the sample, actives were picked, then their nearest neighbours and some compounds at random.
Each entry below carries its recorded survival.
The answer is to be given in %; state only the numeric part.

Answered cases to consult:
>>> df
                                   compound  observation_type  result_value
0  CCN(CC)C(=O)c1sc(NC(=O)C2c3ccccc3Oc3ccccc32)c(C(=O)OC(C)C)c1C          survival             8
1  Cc1ccc(O)c(-c2n[nH]c3c2C(c2ccc(F)cc2)N(Cc2ccco2)C3=O)c1 (stereo not given)          survival             2
2  CCc1ccc(C2c3c(-c4cc(C)ccc4O)n[nH]c3C(=O)N2CCO)cc1 (stereo not given)          survival            78
3  CCOC(=O)c1c(NC(=O)COc2cc(C)ccc2C(C)C)sc(C)c1C          survival            67

Could you now consider this next compound?
Given item `Cc1ccc2[nH]c(CSc3nnc(NC(=O)c4ccccc4C)s3)cc(=O)c2c1` , the value recorded as its survival is 72

---

Each entry below carries its recorded survival.
# Test system: Wild type
# PROTOCOL_DETAILS: S. aureus survival, RN4220 and DeltatarO strains – OD600, teichoic acid synthesis inhibitors, primary screen (AID 463173)
# CONDITION_PARAMETERS: S. aureus RN4220 wild type/DeltatarO growth, OD600, 18 h, hits give low values, screened at 18.75 µg/mL (by protocol)
In all, about 52,000 compounds went through this assay and about 1,700 (3.3%) were called active. The entries come from a sample that favours actives as a whole.

Answered cases to consult:
In [3]: df
Out[3]:
                                 cpd_smiles    result_value
0  CCCc1noc(-c2ccc(N3CCCCC3)c([N+](=O)[O-])c2)n1  77% (inactive)
1  O=C(NC1CCCCC1)c1cc(Nc2cccc(C(F)(F)F)c2)nc2ccccc12  72% (inactive)
2  CCOc1cc(C(=O)N2CCC(c3ccncc3)CC2)cc(OCC)c1OCC    -1% (active)
3   Cc1ccc(Cl)cc1-n1c(CCC(=O)O)ccc1-c1cccs1  64% (inactive)
4  COc1cccc(NC(=O)C2CCN(S(=O)(=O)c3ccc4[nH]c5c(c4c3)CCCCC5)CC2)c1  84% (inactive)

Given item `Cc1ccc(OC(=O)c2cc(-c3ccccc3)nc3ccc(C)cc23)cc1` , the value recorded as its survival is 61% (inactive)

Given item `Cc1ccc(-c2cc(C(=O)Oc3ccccc3)c3cc(C)ccc3n2)cc1` , the value recorded as its survival is 65% (inactive)

---

# System: Wild type
# PROTOCOL_DETAILS: S. aureus survival, RN4220 and DeltatarO strains – OD600, teichoic acid synthesis inhibitors, primary screen (AID 463173)
# CONDITION_PARAMETERS: S. aureus RN4220 wild type/DeltatarO growth, OD600, 18 h, screened at 18.75 µg/mL (by protocol)
In all, about 52,000 compounds went through this assay and about 1,700 (3.3%) were called active. No stated cut-off is given here; in the data, active means survival mostly below about 52% (no sharp cut-off); inactive means mostly above about 56%. The entries come from a sample that favours actives as a whole.
Lab note: assign the record to one of true for active, false for inactive

>>> df
                                   molecule  label_value
0      OCc1cnc(SCc2ccc(F)cc2)n1Cc1ccc(F)cc1        false
1  CCOc1ccc(C(=O)Nc2ccc(C(=O)OCc3cc(=O)n4c(C)csc4n3)cc2)cc1        false
2  O=C(Cn1cc(SCc2ccccc2)c2ccccc21)N1CCCCCC1        false
3  Cc1ccccc1C(=O)Nc1cccc(C(=O)OCc2cc(=O)n3c(C)csc3n2)c1        false
4  COc1ccc(CN(CCC(c2ccc3c(c2)OCO3)c2ccccc2OC)C(C)=O)cc1 (stereo not drawn)         true

Now look at this entry.
Q. GET /call?item= `COc1cccc(-c2nc(CS(=O)(=O)CC(=O)NCc3cccc(Cl)c3)c(C)o2)c1` returns the recorded outcome of this test.
A. false

---

# Tested on: Wild type
# PROTOCOL_DETAILS: S. aureus survival, RN4220 and DeltatarO strains – OD600, teichoic acid synthesis inhibitors, primary screen (AID 463173)
# CONDITION_PARAMETERS: S. aureus RN4220 wild type/DeltatarO growth, OD600, 18 h, hits give low values, screened at 18.75 µg/mL (by protocol)
Among all 52,000 compounds or so, about 1,700 (3.3%) were called active. What follows is part of a selection rich in actives, with near analogues and random picks from the rest.
OBSERVATION_TYPE: survival

                                   compound    result_value
0  Cc1ccc2c(c1)N(C(=O)c1ccc(F)cc1)C(C)(C)CC2(C)c1ccccc1 (stereo not given)  43% (inactive)
1    CCc1ccc(NC(=O)Cc2c(C(=O)O)c(C)cn2C)cc1  76% (inactive)
2     COc1ccccc1C(=O)Nc1cc(-c2ccc(C)cc2)no1  73% (inactive)
3  O=C(CCc1nnc2n(Cc3ccccc3Cl)c(=O)c3ccccc3n12)Nc1ccc(F)c(F)c1  89% (inactive)

Could you now consider this next compound?
Wild type survival of `CCN(C(=O)Cn1c(C(=O)OC)cc2sccc21)c1cccc(C)c1` is 73% (inactive)

---

# Test system: Wild type
# PROTOCOL_DETAILS: S. aureus survival, RN4220 and DeltatarO strains – OD600, teichoic acid synthesis inhibitors, primary screen (AID 463173)
# CONDITION_PARAMETERS: S. aureus RN4220 wild type/DeltatarO growth, OD600, 18 h, hits give low values, screened at 18.75 µg/mL (by protocol)
The whole screen tested about 52,000 compounds, of which about 1,700 (3.3%) were called active. The list comes from a sample in which actives are over-represented; it also holds close analogues and randomly drawn compounds.
Each entry below carries its recorded survival.
The answer is to be given in %; state only the numeric part.

>>> print(df.to_string())
                                 cpd_smiles  observation_type  result_value
0  COc1cccc(/C=C(\C#N)c2nc3ccc(C)cc3[nH]2)c1          survival            53
1    COc1ccc(-c2noc(COc3cc(C)ccc3C)n2)cc1OC          survival             0
2  Cc1ccc2nc(/C(C#N)=C/c3cccc(Br)c3)[nH]c2c1          survival           -11
3                 c1ccc(-n2nnnc2N2CCCC2)cc1          survival           102
4  COc1cc(OC)cc(-c2nc(-c3ccc4c(c3)[nH]c(=O)n4C)no2)c1          survival            73

Given item `COc1cc(OC)cc(-c2nc(-c3cccc(C)c3)no2)c1` , the value recorded as its survival is -15

Given item `COc1ccc(N2CCN(c3ccc(-c4nc(-c5cccc(C)c5)no4)cc3[N+](=O)[O-])CC2)cc1` , the value recorded as its survival is 89

Given item `Cc1cccc(NC(=O)c2ccc3oc(=O)c(S(=O)(=O)c4ccc(F)cc4)cc3c2)c1C` , the value recorded as its survival is 127

---

# Tested on: Wild type
# PROTOCOL_DETAILS: S. aureus survival, RN4220 and DeltatarO strains – OD600, teichoic acid synthesis inhibitors, primary screen (AID 463173)
# CONDITION_PARAMETERS: S. aureus RN4220 wild type/DeltatarO growth, OD600, 18 h, screened at 18.75 µg/mL (by protocol)
Hit rate of the full screen: of about 52,000 compounds, about 1,700 (3.3%) were called active. Rule as the data show it: active = survival mostly below about 52% (no sharp cut-off); inactive = mostly above about 56%. The full list was thinned out, with actives kept by preference.
Lab note: assign the record to one of active, inactive

>>> df
                                   compound  label_value
0     CCn1ccc2c(OCC(=O)Nc3ccccc3C)cccc2c1=O       active
1  Cc1ccc(Cn2c(CCNC(=O)c3cccc(C)c3)nc3ccccc32)cc1     inactive

Q. GET /call?item= `COc1ccc(-c2nc3ccccc3o2)cc1NC(=O)COc1ccc(C(C)(C)C)cc1` returns the recorded outcome of this test.
A. active

Q. GET /call?item= `Cc1cccc(C)c1Nc1c(-c2ccccc2Cl)nc2cnccn12` returns the recorded outcome of this test.
A. inactive

Q. GET /call?item= `Cn1c(SCc2ccc(Br)cc2)nc2c([nH]c3ccccc32)c1=O` returns the recorded outcome of this test.
A. inactive

Q. GET /call?item= `CCOc1ccc(-c2oc3cc(Cl)ccc3c(=O)c2O)cc1OC` returns the recorded outcome of this test.
A. inactive

The measurements presented in this section are drawn from PubChem BioAssay AID463173.
